# System: Ri-1 cells
# ASSAY NOTES: BTK (wt) cell proliferation, Ri-1 (CellTiter-Glo, 72 h);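 further: viable cells quantified as cellular ATP luminescence, proliferation normalized to a time-zero plate and the DMSO control, compounds tested across a dilution series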
# Type: cell-based
# MEASUREMENT CONTEXT: Ri-1, 72 h, Ri-1 cells, 72 h, CellTiter-Glo; read-out: BTK WT Ri-1 GI50
ENDPOINT NAME: GI50 (nM)
Give bare numbers, in nM.

Past entries and their recorded results:
CPD SMILES	ENDPOINT NAME	RECORDED VALUE
C=CC(=O)Nc1cc(Nc2ncnc(Nc3cc(Cl)c(Cl)cc3C(C)(C)O)n2)c(OC)cc1N1CC[C@@H](N(C)C)C1	GI50	5.62
C=CC(=O)Nc1cc(Nc2ncnc(Nc3ccc(Cl)c(F)c3C(C)(C)O)n2)c(OC)cc1N(C)CCN(C)C	GI50	136
C=CC(=O)Nc1cc(Nc2ncnc(Nc3cc(Cl)c(F)cc3C(C)(C)O)n2)c(OC)cc1N(C)CCN1CCCCC1	GI50	50.5
C=CC(=O)Nc1cc(Nc2ncnc(Nc3ccc(F)c(F)c3C(C)(C)O)n2)c(OC)cc1N(C)CCN(C)C	GI50	700

// for each compound below, give its GI50
1. C=CC(=O)Nc1cc(Nc2nccc(Nc3cc(Cl)c(F)cc3C(C)(C)O)n2)c(OC)cc1N1CC[C@@H](N(C)C)C1
2. C=CC(=O)Nc1cc(Nc2ncnc(Nc3cc(Cl)c(F)cc3C(C)(C)O)n2)c(OC)cc1N1CC[C@@H](NC)C1

*A*
[51.3, 151]

###

# ASSAY SYSTEM: human Her2 exon 20 insertion mutation YVMA (Homo sapiens, UniProt P04626, INS775YVMA)
# Sequence (P04626 with tags, fused parts or gaps INS775YVMA): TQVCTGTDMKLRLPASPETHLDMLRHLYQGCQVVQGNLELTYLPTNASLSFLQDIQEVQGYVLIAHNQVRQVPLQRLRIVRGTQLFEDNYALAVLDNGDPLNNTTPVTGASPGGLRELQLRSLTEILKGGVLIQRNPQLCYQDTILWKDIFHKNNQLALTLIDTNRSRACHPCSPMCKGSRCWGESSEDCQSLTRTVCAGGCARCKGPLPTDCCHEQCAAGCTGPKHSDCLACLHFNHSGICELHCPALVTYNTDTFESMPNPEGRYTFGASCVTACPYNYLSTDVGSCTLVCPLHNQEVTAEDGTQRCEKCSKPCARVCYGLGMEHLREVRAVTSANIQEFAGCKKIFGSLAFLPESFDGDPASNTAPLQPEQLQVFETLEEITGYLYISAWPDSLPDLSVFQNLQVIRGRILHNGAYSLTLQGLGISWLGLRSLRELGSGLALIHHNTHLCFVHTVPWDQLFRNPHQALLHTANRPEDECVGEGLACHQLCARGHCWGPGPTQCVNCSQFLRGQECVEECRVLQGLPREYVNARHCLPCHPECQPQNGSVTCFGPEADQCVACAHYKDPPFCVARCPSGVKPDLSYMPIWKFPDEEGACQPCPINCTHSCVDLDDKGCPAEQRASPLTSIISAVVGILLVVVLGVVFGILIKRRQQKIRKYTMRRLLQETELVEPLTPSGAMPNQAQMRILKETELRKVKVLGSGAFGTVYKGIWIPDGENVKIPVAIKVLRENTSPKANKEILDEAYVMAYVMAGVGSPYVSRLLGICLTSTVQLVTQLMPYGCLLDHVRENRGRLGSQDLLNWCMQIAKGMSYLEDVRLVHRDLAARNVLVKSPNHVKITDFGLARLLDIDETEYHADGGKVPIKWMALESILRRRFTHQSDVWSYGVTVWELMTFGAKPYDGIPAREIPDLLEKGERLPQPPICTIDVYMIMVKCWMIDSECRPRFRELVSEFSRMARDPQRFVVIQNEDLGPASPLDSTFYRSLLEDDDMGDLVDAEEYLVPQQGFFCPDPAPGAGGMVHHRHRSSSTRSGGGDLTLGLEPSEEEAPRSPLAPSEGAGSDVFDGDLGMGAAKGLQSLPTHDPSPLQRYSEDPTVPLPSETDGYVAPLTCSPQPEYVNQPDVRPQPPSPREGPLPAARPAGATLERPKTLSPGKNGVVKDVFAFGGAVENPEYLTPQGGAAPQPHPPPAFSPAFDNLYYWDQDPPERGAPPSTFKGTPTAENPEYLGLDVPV
# ASSAY NOTES: Her2 Exon 20 YVMA insertion cellular phosphorylation inhibition (MSD p-Her2 Y1248/total Her2);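 further: lentivirally transduced NIH-3T3 cells in 1% FBS medium, electrochemiluminescent MSD read-out, graded compound concentrations at 37 °C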
# MEASUREMENT CONTEXT: Her2 YVMAins cells, 4 h compound
Where a name gives a salt, the structure may show the parent alone.
ENDPOINT NAME: pIC50
One number for each entry, as −log10 of the molar value.

COMPOUND	pIC50
C=CC(=O)Nc1cc(Nc2ncc(Cl)c(Nc3cc(Cl)c(F)cc3C(C)(C)O)n2)c(OC)cc1N(C)CCN(C)C	7.71

Hey, quick one: what's pIC50 for each of these?
1. C=CC(=O)Nc1cc(Nc2ncnc(Nc3cc(Cl)c(F)cc3C(C)(C)O)n2)c(OC)cc1N1CC[C@@H](N(C)C)C1
2. C=CC(=O)Nc1cc(Nc2ncnc(Nc3cc(Cl)c(F)cc3C(C)(C)O)n2)c(OC)cc1N(C)CCN1CCCCC1
3. C=CC(=O)Nc1cc(Nc2ncnc(Nc3cccnc3C(C)(C)O)n2)c(OC)cc1N(C)CCN(C)C
4. C=CC(=O)Nc1cc(Nc2ncnc(Nc3cc(Cl)c(F)cc3C(C)(C)O)n2)c(OC)cc1N(C)CCN(C)C
5. C=CC(=O)Nc1cc(Nc2ncnc(Nc3cc(F)c(F)cc3C(C)(O)CC)n2)c(OC)cc1N1CCC[C@@H]1CN(C)C (some centres unmarked)

*A*
1: 8.11; 2: 8.02; 3: 7.59; 4: 8.52; 5: 8.59

Parameter requested: pIC50. Apply to each item below.
1. C=CC(=O)Nc1cc(Nc2ncnc(Nc3cc(Cl)c(Cl)cc3C(C)(C)O)n2)c(OC)cc1N1CC[C@@H](N(C)C)C1
2. C=CC(=O)Nc1cc(Nc2ncnc(Nc3cc(F)c(F)cc3C(C)(C)O)n2)c(OC)cc1N(C)C[C@H]1CCCN1C
3. C=CC(=O)Nc1cc(Nc2nccc(Nc3cc(Cl)c(F)cc3C(C)(C)O)n2)c(OC)cc1N1CC[C@@H](NC)C1 [Compound 80, TFA salt]
4. C=CC(=O)Nc1cc(Nc2ncnc(Nc3cc(Cl)c(F)cc3C(C)(O)CC)n2)c(OC)cc1N1CC[C@@H](N(C)C)C1 (single isomer, unassigned) [Compound 70]

*A*
8.05
7.95
7.29
7.80

Hey, can you go through the list below and give me pIC50 for every item?
1. C=CC(=O)Nc1cc(Nc2ncnc(Nc3cc4cc[nH]c4cc3C(C)(C)O)n2)c(OC)cc1N(C)CCN(C)C
2. C=CC(=O)Nc1cc(Nc2ncnc(Nc3cc(F)c(Cl)cc3C(C)(C)O)n2)c(OC)cc1N1CC[C@@H]1CN(C)C
3. C=CC(=O)Nc1cc(Nc2ncnc(Nc3cc(F)c(F)cc3C(C)(C)O)n2)c(OC)cc1N(C)CCN(C)C
4. C=CC(=O)Nc1cc(Nc2ncnc(Nc3ccc(C(F)(F)F)cc3C(C)(C)O)n2)c(OC)cc1N(C)CCN(C)C

*A*
[8.66, 7.94, 8.26, 7.44]

// data source = patent US20230293535A1
